tested on: NCI-H23; assay: NCI tumour cell line growth inhibition, 48 h
Activity calls are given as the source filed them. Rule as the data show it: active = GI50 up to about 1.1 µM and inactive = higher.
GI50 values for the compounds below.

Recorded results for 3 compounds are shown here.
# compound, GI50
rows = [
    ("CC(=O)Oc1c(OC(C)=O)c(-c2ccc(O)c(O)c2)c(O)c(O)c1-c1ccc(O)cc1", "> 100 µM (inactive)"),
    ("CC(C)(C)OC(=O)n1cc(C2CN(O)C(=O)C23CCC(=O)N3Cc2ccccc2)c2ccccc21 (stereo not given)", "61.1 µM (inactive)"),
    ("CN(C)CCNC(=O)c1cccc2[nH]c(-c3ccncc3)nc12", "8.39 µM (inactive)"),
]

Entry CC(=O)O[C@H]1CCN2C(=O)C=CC(OCc3ccccc3)C12 (stereo not given in full) ; GI50 = > 100 µM (inactive)

compound COC(=O)/C(=C1\OC(=O)C(c2ccc(Cl)cc2)=C1O)c1ccc(Cl)cc1 , GI50 observed: 16 µM (inactive)
